assayed_target: Corticotropin-releasing factor receptor 1 (Homo sapiens)
Sequence (P34998 whole entry): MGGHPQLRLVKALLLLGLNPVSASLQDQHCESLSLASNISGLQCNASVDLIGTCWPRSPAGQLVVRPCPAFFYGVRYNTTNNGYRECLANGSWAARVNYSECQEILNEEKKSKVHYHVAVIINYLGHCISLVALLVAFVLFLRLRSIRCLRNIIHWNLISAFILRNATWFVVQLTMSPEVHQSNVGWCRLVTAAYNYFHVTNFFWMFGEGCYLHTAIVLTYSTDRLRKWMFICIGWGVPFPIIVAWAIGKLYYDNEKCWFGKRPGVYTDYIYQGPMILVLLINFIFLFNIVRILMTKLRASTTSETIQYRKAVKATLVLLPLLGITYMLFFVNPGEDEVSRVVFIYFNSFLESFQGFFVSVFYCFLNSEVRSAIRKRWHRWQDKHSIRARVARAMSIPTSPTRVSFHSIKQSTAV
procedure_summary: Displacement of [125I]-CRF from human CRF1 receptor expressed in HEK293 cells after 2 hrs
Assay type: cell-based
// reported IC50 for each item listed

Solved cases below.
>  <given_smiles>
COCCNc1ccc(C)c2nc(-c3c(OC)cc(COC)cc3OC)c(C)cc12

>  <observed_result>
> 1 µM

$$$$
>  <given_smiles>
CCC(CC)Nc1ccc(C)c2nc(-c3c(OC)cc(COC)cc3OC)c(C)cc12

>  <observed_result>
> 1 µM

$$$$

# next compound below
In plain terms, CCCN(CCC)c1ccc(C)c2nc(Oc3c(OC)cc(COC)cc3OC)c(C)cc12 has a documented IC50 of > 1 µM

Every entry's value here was drawn from ChEMBL document CHEMBL2062399.
